# targetUnderTest: T1, HLA-A03.01 (human)
# T1 construct: As for HLA-A02.01
# protocolText: competition vs radiolabeled reference peptide on purified MHC I, gel filtration
Label key: TRUE means IC50 under 100 nM; FALSE means IC50 of 100 nM or more.

binder	assignedCategory
LLTSSSREWK (also called β2M, . . ; SIRH)	FALSE
KLFSCLSFL (also called C15ORF40(+1))	FALSE
LFFFFFETK (also called C15ORF40(+1))	FALSE
LTSSSREWK (also called β2M, . . ; SIRH)	FALSE
KLFSCLSFLS (also called C15ORF40(+1))	FALSE
YMANGSLLNY (also called BTK, C481S)	TRUE
MANGSLLNY (also called BTK, C481S)	TRUE
SLQPPPPGFK (also called C15ORF40(+1))	TRUE
